# assayInfo: Inhibition of mouse EGFR V769_D770insASV mutant stably expressed in mouse BaF3 cells assessed as cell viability incubated for 3 days by Cell Titer-Glo assay
# Assay type: cell-based
# studyConditions: BaF3, 72 h
Property: pIC50; scope: individual molecules
Scale explanation: pIC50 corresponds to minus log10 of a concentration expressed in moles per litre.

>>> val("C=CC(=O)Nc1cc(Nc2ncc(C(=O)OC(C)C)c(-c3cn4c5c(cccc35)CCC4)n2)c(OC)cc1N(C)CCN(C)C")
7.91

In: Report pIC50, nothing else, for this molecule: C=CC(=O)Nc1cc(Nc2ncc(-c3nnco3)c(-c3cn4c5c(cccc35)CCC4)n2)c(OC)cc1N(C)CCN(C)C
Out: 7.89

In: Specify pIC50 for C=CC(=O)Nc1cc(Nc2ncc(Cl)c(-c3cn4c5c(cccc35)OCC4)n2)c(OC)cc1N(C)CCN(C)C and stop.
Out: 7.46

====

# assayInfo: Cmax in CD-1 mouse at 10 mg/kg, po by LC/MS/MS analysis
# Format: ADME, organism-based
# Set-up: dose 10 mg/kg, route po
# studyConditions: in vivo
Please assign criterion not met whenever Cmax is at or above 60 ng/mL, and criterion met whenever it is below.

// below: answered molecules
>>> categorylabel("C=CC(=O)Nc1cc(Nc2ncc(C(=O)OC)c(-c3cn(C)c4ccccc34)n2)c(OC)cc1N(C)CCN(C)C")
"criterion met"
>>> categorylabel("C=CC(=O)Nc1cc(Nc2ncc(-c3ccnn3C)c(-c3cn4c5c(cccc35)CCC4)n2)c(OC)cc1N(C)CCN(C)C")
"criterion not met"

In: Quick check: does C=CC(=O)Nc1cc(Nc2ncc(C#N)c(-c3cn4c5c(cccc35)CCC4)n2)c(OC)cc1N(C)CCN(C)C have Cmax under 60 ng/mL?
Out: criterion met

In: Does the reported Cmax of the following molecule sit strictly below 60 ng/mL? C=CC(=O)Nc1cc(Nc2nccc(-c3cn4c5c(cccc35)CCC4)n2)c(OC)cc1N(C)CCN(C)C
Out: criterion not met

====

// reported AUC(0-t) per item
# assayInfo: AUClast in CD-1 rat at 10 mg/kg, po by LC/MS/MS analysis
# Assay type: ADME, organism-based
# Parameters: dose 10 mg/kg, route po
# studyConditions: in vivo
Numbers only; they are read as ng·h/mL.

These recorded examples may help you get a feel for the data.
>>> val("C=CC(=O)Nc1cc(Nc2ncc(C(=O)OC(C)C)c(-c3cn(C)c4ccccc34)n2)c(OC)cc1N(C)C[C@H]1CCCN1C")
323
>>> val("C=CC(=O)Nc1cc(Nc2ncc(-c3cnn(C(C)C)c3)c(-c3cn4c5c(cccc35)CCC4)n2)c(OC)cc1N(C)CCN(C)C")
2020
>>> val("C=CC(=O)Nc1cc(Nc2ncc(C(=O)OC(C)C)c(-c3cn(C)c4ccccc34)n2)c(OC)cc1N(C)C[C@@H]1CCCN1C")
1390

In: Consider the compound C=CC(=O)Nc1cc(Nc2ncc(-c3ncco3)c(-c3cn4c5c(cccc35)CCC4)n2)c(OC)cc1N(C)CCN(C)C and give its recorded AUC(0-t).
Out: 1140
